Target: human C3bBb (Homo sapiens (Human))
Test: Human C3bBb enzyme assay (C3a generation from C3, ELISA)
Format: biochemical
Details: starred values: assay conducted with 1 nM C3b:Bb enzyme; read-out: Human C3b:Bb IC50 Avg
Description: Compounds disclosed herein were evaluated for their potency to inhibit human C3bBb in a biochemical assay. […] The generation of C3a from C3 by the C3bBb complex was measured using the MicroVue C3a Plus EIA ELISA kit (Quidel, A031). The concentration of C3a from each well was calculated using a standard curve. […]
pIC50: −log10 of the molar value.
Please respond with reported pIC50 for every item in the list.

For reference, reported pIC50 for COc1cc(C)c2[nH]ccc2c1CN1CC[C@H](OC2CCC2)C[C@H]1c1ccc(C(=O)O)cc1 [Example 84] stands at 7.30 to 7.60

For reference, reported pIC50 for COc1cc(C)c2[nH]ccc2c1CN1CC[C@H](n2cc(Cl)cn2)C[C@H]1c1ccc(C(=O)O)cc1 [Example 8] stands at > 8.00

For reference, reported pIC50 for COc1cc(C)c2[nH]ccc2c1CN1CC[C@]2(C[C@H]1c1ccc(C(=O)O)cc1)C[C@@H](OC(F)F)C2 (single isomer, unassigned) [Example 56] stands at > 8.00

For reference, reported pIC50 for COc1cc(C)c2[nH]cc(F)c2c1CN1CCC2(C[C@H]1c1ccc(C(=O)O)cc1)CC(F)(F)C2 [Example 54] stands at > 8.00

For reference, reported pIC50 for COc1cc(C)c2[nH]ccc2c1CN1CC[C@]2(C[C@H]1c1ccc(C(=O)O)cc1)C[C@@H](C(F)F)C2 (single isomer, unassigned) [Example 47] stands at > 8.00

For reference, reported pIC50 for COc1cc(C)c2[nH]ccc2c1CN1CC[C@H](NC2COC2)C[C@H]1c1ccc(C(=O)O)cc1 [Example 18] stands at > 8.00

For reference, reported pIC50 for COc1cc(C)c2[nH]ccc2c1CN1CC[C@H](N2CC(C(F)(F)F)C2)C[C@H]1c1ccc(C(=O)O)cc1 [Example 81] stands at > 8.00

For reference, reported pIC50 for COc1cc(C)c2[nH]ccc2c1CN1CC[C@]2(C[C@H]1c1ccc(C(=O)O)cc1)C[C@@H](F)C2 [Example 61] stands at > 8.00

For reference, reported pIC50 for COc1cc(C)c2[nH]ccc2c1CN1CC[C@]2(C[C@H]1c1ccc(C(=O)O)cc1)C[C@@](C)(O)C2 (single isomer, unassigned) [Example 60] stands at 7.60 to 8.00

For reference, reported pIC50 for COc1cc(C)c2[nH]ccc2c1CN1CCC2(C[C@H]1c1ccc(C(=O)O)cc1)CC(F)(F)C2 [Example 45] stands at > 8.00

For reference, reported pIC50 for COc1cc(C)c2[nH]ccc2c1CN1CCN(CC2(F)COC2)C[C@H]1c1ccc(C(=O)O)cc1 [Example 69] stands at 7.00 to 7.30

For reference, reported pIC50 for COc1cc(C)c2[nH]ccc2c1CN1CC[C@]2(C[C@H]1c1ccc(C(=O)O)cc1)C[C@@H](F)C2 (single isomer, unassigned) [Example 63] stands at > 8.00

For reference, reported pIC50 for COc1cc(C)c2[nH]ccc2c1CN1CCC2(CC(=O)C2)C[C@H]1c1ccc(C(=O)O)cc1 [Example 58] stands at > 8.00

For reference, reported pIC50 for COc1cc(C)c2[nH]ccc2c1CN1CCN(CC(F)F)C[C@H]1c1ccc(C(=O)O)cc1 [Example 66] stands at 7.30 to 7.60

====

Target: human C3bBb (Homo sapiens (Human), UniProt P00751)
Sequence (P00751 260-764): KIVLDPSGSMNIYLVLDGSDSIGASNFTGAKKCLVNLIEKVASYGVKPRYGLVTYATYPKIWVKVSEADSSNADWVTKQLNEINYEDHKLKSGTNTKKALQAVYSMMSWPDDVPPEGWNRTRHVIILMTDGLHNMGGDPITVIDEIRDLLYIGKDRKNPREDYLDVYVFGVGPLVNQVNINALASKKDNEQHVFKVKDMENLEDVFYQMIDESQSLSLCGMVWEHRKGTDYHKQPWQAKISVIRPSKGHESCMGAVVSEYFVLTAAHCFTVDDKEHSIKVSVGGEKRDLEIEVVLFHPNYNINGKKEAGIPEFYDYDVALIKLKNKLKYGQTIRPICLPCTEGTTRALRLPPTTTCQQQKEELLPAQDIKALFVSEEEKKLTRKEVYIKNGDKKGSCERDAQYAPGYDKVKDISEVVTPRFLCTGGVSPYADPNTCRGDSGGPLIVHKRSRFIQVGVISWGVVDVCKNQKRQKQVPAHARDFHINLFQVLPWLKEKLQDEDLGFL
Sequence (P01024 23-667 partner): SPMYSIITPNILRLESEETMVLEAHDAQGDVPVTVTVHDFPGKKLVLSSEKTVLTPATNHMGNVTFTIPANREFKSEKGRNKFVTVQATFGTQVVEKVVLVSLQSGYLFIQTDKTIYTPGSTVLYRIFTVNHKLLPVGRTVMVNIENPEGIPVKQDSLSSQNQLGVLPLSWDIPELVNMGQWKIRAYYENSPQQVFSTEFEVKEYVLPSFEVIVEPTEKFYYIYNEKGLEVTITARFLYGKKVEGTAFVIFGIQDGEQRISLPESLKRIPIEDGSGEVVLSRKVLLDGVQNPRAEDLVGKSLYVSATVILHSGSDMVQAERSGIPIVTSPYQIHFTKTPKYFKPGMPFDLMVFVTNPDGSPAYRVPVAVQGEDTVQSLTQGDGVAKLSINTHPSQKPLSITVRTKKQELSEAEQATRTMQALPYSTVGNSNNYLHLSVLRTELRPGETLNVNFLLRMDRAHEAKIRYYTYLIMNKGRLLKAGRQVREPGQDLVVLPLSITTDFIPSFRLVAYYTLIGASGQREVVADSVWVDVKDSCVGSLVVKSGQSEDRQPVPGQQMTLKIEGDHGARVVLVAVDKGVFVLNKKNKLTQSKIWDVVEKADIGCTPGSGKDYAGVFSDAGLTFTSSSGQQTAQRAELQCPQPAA
Sequence (P01024 749-1663 partner): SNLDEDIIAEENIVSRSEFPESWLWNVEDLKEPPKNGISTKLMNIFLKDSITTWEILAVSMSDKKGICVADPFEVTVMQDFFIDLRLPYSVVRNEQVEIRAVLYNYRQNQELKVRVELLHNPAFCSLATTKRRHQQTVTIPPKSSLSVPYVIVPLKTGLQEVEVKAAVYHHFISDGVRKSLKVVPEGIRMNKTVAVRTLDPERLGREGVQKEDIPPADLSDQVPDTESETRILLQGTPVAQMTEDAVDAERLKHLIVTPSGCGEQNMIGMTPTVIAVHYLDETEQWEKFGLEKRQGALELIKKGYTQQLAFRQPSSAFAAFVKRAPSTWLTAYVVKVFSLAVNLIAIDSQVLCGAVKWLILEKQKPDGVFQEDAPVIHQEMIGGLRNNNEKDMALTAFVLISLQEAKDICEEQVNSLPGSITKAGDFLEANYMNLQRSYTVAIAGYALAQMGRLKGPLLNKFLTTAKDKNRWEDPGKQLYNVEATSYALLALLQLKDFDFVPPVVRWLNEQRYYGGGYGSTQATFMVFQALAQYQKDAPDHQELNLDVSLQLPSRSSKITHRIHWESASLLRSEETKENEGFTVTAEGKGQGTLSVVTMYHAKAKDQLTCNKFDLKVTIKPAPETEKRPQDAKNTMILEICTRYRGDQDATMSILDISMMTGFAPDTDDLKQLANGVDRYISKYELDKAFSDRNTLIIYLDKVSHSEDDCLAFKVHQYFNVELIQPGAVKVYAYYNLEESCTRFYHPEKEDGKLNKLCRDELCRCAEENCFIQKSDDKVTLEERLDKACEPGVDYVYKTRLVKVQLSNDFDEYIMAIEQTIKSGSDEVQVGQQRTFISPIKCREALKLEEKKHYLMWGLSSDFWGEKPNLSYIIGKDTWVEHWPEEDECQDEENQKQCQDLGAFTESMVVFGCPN
Assay: Human C3bBb enzyme assay (C3a generation from C3, ELISA)
Type: biochemical
Settings: starred values: assay conducted with 1 nM C3b:Bb enzyme; read-out: Human C3b:Bb IC50 Avg
pIC50: −log10 of the molar value.
Please respond with reported pIC50 for every item in the list.

For reference, reported pIC50 for COc1cc(C)c2[nH]ccc2c1CN1CC[C@H](N2CCCC2=O)C[C@H]1c1ccc(C(=O)O)cc1 [Example 13] stands at 7.00 to 7.30

For reference, reported pIC50 for COc1cc(C)c2[nH]ccc2c1CN1CCC2(COC2)C[C@H]1c1ccc(C(=O)O)cc1 [Example 32] stands at > 8.00

For reference, reported pIC50 for COc1cc(C)c2[nH]ccc2c1CN1CCN(CC2CC(F)(F)C2)C[C@H]1c1ccc(C(=O)O)cc1 [Example 67] stands at 7.00 to 7.30

For reference, reported pIC50 for COc1cc(C)c2[nH]ccc2c1CN1CC[C@H](NCC(F)F)C[C@H]1c1ccc(C(=O)O)cc1 [Example 22] stands at > 8.00

For reference, reported pIC50 for COc1cc(C)c2[nH]ccc2c1CN1CC[C@]2(C[C@H]1c1ccc(C(=O)O)cc1)C[C@@H](C(F)F)C2 (single isomer, unassigned) [Example 46] stands at > 8.00

For reference, reported pIC50 for COc1cc(C)c2[nH]ccc2c1CN1CCC2(C[C@H]1c1ccc(C(=O)O)c(F)c1)CC(F)(F)C2 [Example 50] stands at > 8.00

For reference, reported pIC50 for COc1cc(C)c2[nH]ccc2c1CN1CC[C@H](N2CC(F)C2)C[C@H]1c1ccc(C(=O)O)cc1 [Example 80] stands at 7.30 to 7.60

====

Biological target: UniProt P00751
Experiment: Human C3bBb enzyme assay (C3a generation from C3, ELISA)
Type: biochemical
Settings: starred values: assay conducted with 1 nM C3b:Bb enzyme; read-out: Human C3b:Bb IC50 Avg
pIC50: −log10 of the molar value.
Please respond with reported pIC50 for every item in the list.

For reference, reported pIC50 for COc1cc(C)c2[nH]ccc2c1CN1CC[C@H](n2cc(C(F)F)cn2)C[C@H]1c1ccc(C(=O)O)cc1 (racemic) stands at > 8.00

For reference, reported pIC50 for COc1cc(C)c2[nH]ccc2c1CN1CCN(CCF)C[C@H]1c1ccc(C(=O)O)cc1 stands at 7.30 to 7.60

For reference, reported pIC50 for COc1cc(C)c2[nH]ccc2c1CN1CC[C@]2(C[C@H]1c1ccc(C(=O)O)cc1)C[C@@H](C#N)C2 (single isomer, unassigned) [Example 52] stands at > 8.00

For reference, reported pIC50 for COc1cc(C)c2[nH]ccc2c1CN1CC[C@H](NCC2CC2)C[C@H]1c1ccc(C(=O)O)cc1 stands at 7.00 to 7.30

For reference, reported pIC50 for Cc1cc(C2CC2)c(CN2CC[C@H](N3CC4(CC4)C3)C[C@H]2c2ccc(C(=O)O)cc2)c2cc[nH]c12 stands at 7.30 to 7.60

For reference, reported pIC50 for COc1cc(C)c2[nH]ccc2c1CN1CCN(CCC(F)(F)F)C[C@H]1c1ccc(C(=O)O)cc1 stands at > 8.00

For reference, reported pIC50 for COc1cc(C)c2[nH]ccc2c1CN1CC[C@H](N2CC(S(C)(=O)=O)C2)C[C@H]1c1ccc(C(=O)O)cc1 stands at 7.00 to 7.30

====

Target: human C3bBb (Homo sapiens (Human), UniProt P00751)
Assay: Human C3bBb enzyme assay (C3a generation from C3, ELISA)
Format: biochemical
Conditions: starred values: assay conducted with 1 nM C3b:Bb enzyme; read-out: Human C3b:Bb IC50 Avg
Please respond with reported IC50 for every item in the list.

For reference, reported IC50 for COc1cc(C)c2[nH]ccc2c1CN1CC[C@]2(CCC(F)(F)C2)C[C@H]1c1ccc(C(=O)O)cc1 (single isomer, unassigned) [Example 35] stands at < 10 nM

For reference, reported IC50 for Cc1cc(C2CC2)c(CN2CC[C@H](N3CC(C#N)C3)C[C@H]2c2ccc(C(=O)O)cc2)c2cc[nH]c12 stands at < 10 nM

For reference, reported IC50 for COc1cc(C)c2[nH]ccc2c1CN1CC[C@@]2(C[C@H]1c1ccc(C(=O)O)cc1)CC2(F)F (stereo in doubt) stands at < 10 nM

====

Biological target: human C3bBb (Homo sapiens (Human))
Assay: Human C3bBb enzyme assay (C3a generation from C3, ELISA)
Type: biochemical
Settings: starred values: assay conducted with 1 nM C3b:Bb enzyme; read-out: Human C3b:Bb IC50 Avg
Please respond with reported IC50 for every item in the list.

For reference, reported IC50 for COc1cc(C)c2[nH]ccc2c1CN1CC[C@@]2(CCOC2)C[C@H]1c1ccc(C(=O)O)cc1 (single isomer, unassigned) [Example 34] stands at < 10 nM

For reference, reported IC50 for COc1cc(C)c2[nH]ccc2c1CN1CCC2(C[C@H]1c1ccc(C(=O)O)cc1)CC1(CC1)C2 [Example 51] stands at < 10 nM

For reference, reported IC50 for COc1cc(C)c2[nH]ccc2c1CN1CC[C@H](N2CC(C(F)F)C2)C[C@H]1c1ccc(C(=O)O)cc1 [Example 74] stands at < 10 nM

For reference, reported IC50 for COc1cc(C)c2[nH]ccc2c1CN1CC[C@H](OCC(F)(F)F)C[C@H]1c1ccc(C(=O)O)cc1 [Example 85] stands at < 10 nM

For reference, reported IC50 for COc1cc(C)c2[nH]cc(Cl)c2c1CN1CCC2(C[C@H]1c1ccc(C(=O)O)cc1)CC(F)(F)C2 [Example 53] stands at < 10 nM

For reference, reported IC50 for COc1cc(C)c2[nH]ccc2c1CN1CCN(CC(F)(F)F)C[C@H]1c1ccc(C(=O)O)cc1 [Example 65] stands at 10 to 25 nM

For reference, reported IC50 for COc1cc(C)c2[nH]ccc2c1CN1CC[C@H](OC(F)F)C[C@H]1c1ccc(C(=O)O)cc1 [Example 28] stands at < 10 nM
